ASSAY OVERVIEW: Solubility of compound in FaSSIF
Format: physicochemical
MEASURED ATTRIBUTE: solubility (µM)

Tell me its solubility given "COc1ccccc1OC1CN(S(=O)(=O)c2ccc3c(c2)OCO3)C1" as the entry.
102

A = COc1ccc(Cl)cc1OC1CN(S(=O)(=O)c2ccc3[nH]c(=O)oc3c2)C1
B = O=S(=O)(c1ccc2c(c1)OCO2)N1CC[C@@H](c2ccccc2F)C1
Among A and B , which shows a numerically higher solubility result? Identify your selection by its label.
A

====

ASSAY OVERVIEW: Volume of distribution at steady state in CD1 mouse at 1 mg/kg, iv
Assay type: ADME, organism-based
REPORTED CONDITIONS: in vivo, read-out: Vdss
MEASURED ATTRIBUTE: Vd (L/kg)
Quick reminder: number only, in L/kg, skip the unit.

Tell me its Vd given "COc1ccc(Cl)cc1OC1CN(S(=O)(=O)c2ccc3[nH]c(=O)oc3c2)C1" as the entry.
1.4
